What folding stability dG unfold was measured for each of the following?
testSummary: folding stability dG unfold (combined trypsin and chymotrypsin); higher = more stable
Numbers only, in kcal/mol.

Check out these entries, answers already filled in.
SAGGSAGGSAGPVISKSEVESTEIIFSYNNKHEITVKKVKKTITTTIPPVKLKPDGTPILSAGGSAGGSAGG [r11_558_JUSTAS] = -0.349
SSWEKLSTLTLPSTGLTVTFYYDPSTNSTAVKVTDGAGPELSEKVLSDDETFTLPDGVSIKLPKGAEPASSA [r9_340_JUSTAS] = 1.02
SAGGEELMKDHPNFIFITIEIRHPGGGKEKPKFMIMIPNNTPEELIDELRDFLPPGYKIKDVEIHYMDSAGG [r13_849_TrROS] = 2.14
SAGAMPPVVEVAPVEGEGLLRVTVPVPTSDVVRVTVDLGDRRLEYTLPRDASLEVSTADAEVRVAVELVSAG [r14_96_JUSTAS] = 0.638
SANEKVTVEVKIRFYFRFPKGQPFPFDITVPVTVEYDPNDPDKAKEEAKEKAIDEAIDEFRERFGYPLPSAG [r14_117_TrROS] = 2.37

Prompt: What does the record list as folding stability dG unfold for SMKIPGMSAKEKLRKAIEALLEEAEKKGIKEITIKIYNKKTKKPIKEIKFKSKEELLKKIEEGDEVEIEFSA [r9_718_TrROS_Hall] ?
Completion: 1.83
